# protocol_details: Mean graph midpoint for growth inhibition of all human cancer cells was determined
# Assay type: functional, Cancer cell lines
# Parameters: unit: µM
metric_name: MGM

> print(dat)
                                smiles.text  metric.name  measurement
1  CCCCCCNC(=O)c1cc(/C=C\c2cc(O)ccc2O)ccc1O          MGM          4.1

[Q] Given the compound `COc1ccc(OC)c(C#Cc2ccc(OC)c(C(=O)NCCc3ccc(F)cc3)c2)c1` , what is its reported MGM?
[A] 11.5

[Q] Given the compound `COc1ccc(OC)c(C#Cc2ccc(OC)c(C(=O)O)c2)c1` , what is its reported MGM?
[A] 18.6

[Q] Given the compound `O=C(NCCc1ccc(F)cc1)c1cc(/C=C\c2cc(O)ccc2O)ccc1O` , what is its reported MGM?
[A] 3.5

[Q] Given the compound `COC(=O)c1cc(C#Cc2cc(OC)ccc2OC)ccc1OC` , what is its reported MGM?
[A] 30.9
